test system: HKE3; assay: Cell viability, HKE3 colon cancer cells; type: cell-based, human; conditions: Homo sapiens, HKE3, Colon, first HKE3 line; read-out: IC50 (−LogM) (converted)
Measurement name: log10(IC50) (log10 of the value in nM)
Give log10 of IC50, with IC50 taken in nM.

INSERT INTO measurements (substance_smiles, measurement_name, measured_result) VALUES
  ('OCc1cn(Cc2ccccc2Cl)c2ccccc12', 'log10(IC50)', 2.10);

Noted for `O=[N+]([O-])c1cccc(Cn2cc(CO)c3ccccc32)c1` : its log10(IC50) reads 1.90

Noted for `OCc1cn(Cc2ccc(Cl)c(Cl)c2)c2ccccc12` : its log10(IC50) reads 0.40

Noted for `OCc1cn(Cc2cccc(C(F)(F)F)c2)c2ccccc12` : its log10(IC50) reads 3.00

Noted for `OCc1cn(Cc2ccc(Cl)cc2)c2ccccc12` : its log10(IC50) reads 1.40

Noted for `O=[N+]([O-])c1ccc(Cn2cc(CO)c3ccccc32)cc1` : its log10(IC50) reads 2.60
